tested on: ERBB4; details: concentration: 1 μM, replicates: in singlicate; n = 1;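 further: KINOMEscan kinase panel screen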
value_type: %Inh (%)
The reply should contain only the number, in %.

Examples with their reported %Inh follow.
[[record]]
compound = "CN(C)CCNS(=O)(=O)c1ccc(-c2ccnc3[nH]ccc23)cc1 [GSK977620]"
target = "ERBB4"
measured = 30

[[record]]
compound = "N#Cc1cnc2cc(-c3cnc(CNCCN4CCOCC4)s3)ccc2c1Nc1ccc(Oc2ccccc2)cc1 [GW664114]"
target = "ERBB4"
measured = 100

[[record]]
compound = "Cc1ccccc1CC(=O)N1CCc2cc(-c3cn(C)c4ncnc(N)c34)ccc21 [GSK2603346]"
target = "ERBB4"
measured = 32

[[record]]
compound = "COc1cc(Nc2ccnc3cc(-c4ccncc4)ccc23)cc(OC)c1OC.Cl [GW494610]"
target = "ERBB4"
measured = 5


Query: Give me measured %Inh, please, for this compound: CN(c1ccc2c(c1)nc(NCc1ccccc1)n2C)c1ccnc(Nc2ccc(CS(C)(=O)=O)cc2)n1.Cl [GW811603]
Response: 17

Query: Give me measured %Inh, please, for this compound: CC(C)c1nc(-c2cccc(NS(=O)(=O)c3c(F)cccc3F)c2)c(-c2ccnc(Nc3ccc(N4CCOCC4)nc3)n2)s1.Cl [GSK1723980]
Response: 95
